- test-system: T1, human-CD40 monomer (human, UniProt P25942 21-193, limits assumed)
- T1 construct: also called hCD40-monomer; human-CD40-monomer protein
- T1 sequence (P25942 21-193 limits assumed): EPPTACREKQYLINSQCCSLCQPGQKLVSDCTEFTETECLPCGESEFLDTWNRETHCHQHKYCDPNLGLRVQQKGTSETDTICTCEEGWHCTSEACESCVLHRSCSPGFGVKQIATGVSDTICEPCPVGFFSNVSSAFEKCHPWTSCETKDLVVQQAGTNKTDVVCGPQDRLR
- assay-remarks: SPR 2 pt screen, Ab on protein A
measurement-name: kon (M⁻¹ s⁻¹)
One number for each entry, in M⁻¹ s⁻¹.

Record excerpt, results attached:
>>> value_measured("humanized Y1238 hz34 (hz-HC7 / hz-LC4), IgG1.3f (antibody, V domains shown, IgG1.3f heavy constant, common CL; expression supernatant; also called Sup 34) VH: QVQLVQSGAEVVKPGASVKVSCKASGYAFTNYLIEWVRQRPGQGLEWMGVINPGSGGTNYNEKFKGRVTMTADKSSSTAYMQLSRLRSDDTAVYFCARSQLGRRFDYWGQGTLVTVSS VL: DIQMTQSPSSLSASVGDRVTITCKASQDVRTGVAWYQQKPGQSPKLLIYSASYRNTGVPSRFSGSRSGTDFTFTISSLQAEDIAVYYCQQHYSPPYTFGGGTKVEIK")
40000
>>> value_measured("humanized Y1238 hz30 (hz-HC6 / hz-LC5), IgG1.3f (antibody, V domains shown, IgG1.3f heavy constant, common CL; expression supernatant; also called Sup 30) VH: QVQLVQSGAEVKKPGASVKVSCKASGYAFTNYLIEWVRQRPGQGLEWMGVINPGSGGTNYNEKFKGRVTLTADKSISTAYMELSRLRSDDTAVYYCARSQLGRRFDYWGQGTLVTVSS VL: DIQMTQSPSSLSASVGDRVTITCKASQDVRTGVAWYQQKPGQAPKLLIYSASYRNTGVPSRFSGSRSGTDFTFTISSLQPEDIAVYYCQQHYSPPYTFGGGTKVEIK")
42000

We now examine a further binder.
The recorded kon for humanized Y1238 hz39 (hz-HC8 / hz-LC4), IgG1.3f (antibody, V domains shown, IgG1.3f heavy constant, common CL; expression supernatant; also called Sup 39) VH: QVQLVQSGAEVVKPGASVKVSCKASGYAFTNYLIEWVRQRPGQGLEWMGVINPGSGGTNYNEKFKGRVTLTADKSSSTAYMQLSRLRSDDTAVYFCARSQLGRRFDYWGQGTLVTVSS VL: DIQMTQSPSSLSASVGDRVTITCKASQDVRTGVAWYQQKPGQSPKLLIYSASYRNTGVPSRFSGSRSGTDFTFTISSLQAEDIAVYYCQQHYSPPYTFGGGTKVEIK is 40000

// data source = patent US20220177596A1
